Attribution: patent US11629201B2

test system: PC-3 PIP/flu tumor-bearing mice; assay: Biodistribution studies in PC-3 PIP/flu tumor-bearing mice; conditions: 48 h p.i.
ENDPOINT: Kidneys (% IA/g)
Reply numerically in % IA/g, unit not repeated.

Recorded Kidneys, per entry:
[
  {
    "MOLECULE": "O=C(O)CCC(NC(=O)NC(CCCCNC(=O)C(Cc1ccc2ccccc2c1)NC(=O)C1CCC(n2cc(CC(NC(=O)CN3CCN(CC(=O)O)CCN(CC(=O)O)CCN(CC(=O)O)CC3)C(=O)NC(CCCCNC(=O)CCCc3ccc(I)cc3)C(=O)O)nn2)CC1)C(=O)O)C(=O)O (stereo not shown) [^177Lu-PSMA-ALB-01, metal not drawn]",
    "ASSAY VALUE": 25.2
  },
  {
    "MOLECULE": "O=C(O)CCC(NC(=O)NC(CCCCNC(=O)C(Cc1ccc2ccccc2c1)NC(=O)C1CCC(CNC(=O)C(CCCCNC(=O)CCCc2ccc(I)cc2)NC(=O)CN2CCN(CC(=O)O)CCN(CC(=O)O)CCN(CC(=O)O)CC2)CC1)C(=O)O)C(=O)O (stereo not shown) [^177Lu-PSMA-ALB-03, metal not drawn]",
    "ASSAY VALUE": 22.6
  },
  {
    "MOLECULE": "O=C(O)CCC(NC(=O)NC(CCCCNC(=O)C(Cc1ccc2ccccc2c1)NC(=O)C1CCC(CNC(=O)C(CCCCNC(=O)CN2CCN(CC(=O)O)CCN(CC(=O)O)CCN(CC(=O)O)CC2)NC(=O)CCCCCCC(=O)NC(CCCCNC(=O)CCCc2ccc(I)cc2)C(=O)O)CC1)C(=O)O)C(=O)O (stereo not shown) [^177Lu-PSMA-ALB-04, metal not drawn]",
    "ASSAY VALUE": 38.2
  }
]

Proceed to the following item.
Exercise: What does the record list as Kidneys for O=C(O)CCC(NC(=O)NC(CCCCNC(=O)C(Cc1ccc2ccccc2c1)NC(=O)C1CCC(CNC(=O)C(CCCCNC(=O)CN2CCN(CC(=O)O)CCN(CC(=O)O)CCN(CC(=O)O)CC2)NC(=O)CC(NC(=O)CC(NC(=O)CCCc2ccc(I)cc2)C(=O)O)C(=O)O)CC1)C(=O)O)C(=O)O (stereo not shown) [^177Lu-PSMA-ALB-05, metal not drawn] ?
Key: 12.8

###

tested on: PC-3 PIP/flu tumor-bearing mice; assay: Biodistribution studies in PC-3 PIP/flu tumor-bearing mice; conditions: 96 h p.i.
compounds and their reported Spleen
I only need the number, in % IA/g, no unit after it.

Some compounds with recorded Spleen:
[
  {
    "COMPOUND": "O=C(O)CCC(NC(=O)NC(CCCCNC(=O)C(Cc1ccc2ccccc2c1)NC(=O)C1CCC(CNC(=O)C(CCCCNC(=O)CCCc2ccc(I)cc2)NC(=O)CN2CCN(CC(=O)O)CCN(CC(=O)O)CCN(CC(=O)O)CC2)CC1)C(=O)O)C(=O)O (stereo not shown) [^177Lu-PSMA-ALB-03, metal not drawn]",
    "TARGET UNDER TEST": "PC-3 PIP/flu tumor-bearing mice",
    "UNIT OF MEASUREMENT": "% IA/g",
    "Spleen": 3.23
  },
  {
    "COMPOUND": "O=C(O)CCC(NC(=O)NC(CCCCNC(=O)C(Cc1ccc2ccccc2c1)NC(=O)C1CCC(CNC(=O)C(CCCCNC(=O)CN2CCN(CC(=O)O)CCN(CC(=O)O)CCN(CC(=O)O)CC2)NC(=O)CCCCCCC(=O)NC(CCCCNC(=O)CCCc2ccc(I)cc2)C(=O)O)CC1)C(=O)O)C(=O)O (stereo not shown) [^177Lu-PSMA-ALB-04, metal not drawn]",
    "TARGET UNDER TEST": "PC-3 PIP/flu tumor-bearing mice",
    "UNIT OF MEASUREMENT": "% IA/g",
    "Spleen": 6.76
  }
]

Field: next compound
Exercise: Look up Spleen: O=C(O)CCC(NC(=O)NC(CCCCNC(=O)C(Cc1ccc2ccccc2c1)NC(=O)C1CCC(CNC(=O)C(CCCCNC(=O)CN2CCN(CC(=O)O)CCN(CC(=O)O)CCN(CC(=O)O)CC2)NC(=O)CC(NC(=O)CC(NC(=O)CCCc2ccc(I)cc2)C(=O)O)C(=O)O)CC1)C(=O)O)C(=O)O (stereo not shown) [^177Lu-PSMA-ALB-05, metal not drawn]
Key: 0.64

###

Each entry below lists one item and its recorded PC-3 flu Tumor value.
system: PC-3 PIP/flu tumor-bearing mice; test: Biodistribution studies in PC-3 PIP/flu tumor-bearing mice; conditions: 96 h p.i.
Express the result in % IA/g but write the number alone.

Worked cases, answers included:
[
  {
    "COMPOUND": "O=C(O)CCC(NC(=O)NC(CCCCNC(=O)C(Cc1ccc2ccccc2c1)NC(=O)C1CCC(CNC(=O)C(CCCCNC(=O)CCCc2ccc(I)cc2)NC(=O)CN2CCN(CC(=O)O)CCN(CC(=O)O)CCN(CC(=O)O)CC2)CC1)C(=O)O)C(=O)O (stereo not shown) [^177Lu-PSMA-ALB-03, metal not drawn]",
    "UNIT OF MEASUREMENT": "% IA/g",
    "PC-3 flu Tumor": 3.52
  },
  {
    "COMPOUND": "O=C(O)CCC(NC(=O)NC(CCCCNC(=O)C(Cc1ccc2ccccc2c1)NC(=O)C1CCC(CNC(=O)C(CCCCNC(=O)CN2CCN(CC(=O)O)CCN(CC(=O)O)CCN(CC(=O)O)CC2)NC(=O)CCCCCCC(=O)NC(CCCCNC(=O)CCCc2ccc(I)cc2)C(=O)O)CC1)C(=O)O)C(=O)O (stereo not shown) [^177Lu-PSMA-ALB-04, metal not drawn]",
    "UNIT OF MEASUREMENT": "% IA/g",
    "PC-3 flu Tumor": 5.63
  },
  {
    "COMPOUND": "O=C(O)CCC(NC(=O)NC(CCCCNC(=O)C(Cc1ccc2ccccc2c1)NC(=O)C1CCC(n2cc(CC(NC(=O)CN3CCN(CC(=O)O)CCN(CC(=O)O)CCN(CC(=O)O)CC3)C(=O)NC(CCCCNC(=O)CCCc3ccc(I)cc3)C(=O)O)nn2)CC1)C(=O)O)C(=O)O (stereo not shown) [^177Lu-PSMA-ALB-01, metal not drawn]",
    "UNIT OF MEASUREMENT": "% IA/g",
    "PC-3 flu Tumor": 2.76
  }
]

Exercise: Look up PC-3 flu Tumor: O=C(O)CCC(NC(=O)NC(CCCCNC(=O)C(Cc1ccc2ccccc2c1)NC(=O)C1CCC(CNC(=O)C(CCCCNC(=O)CN2CCN(CC(=O)O)CCN(CC(=O)O)CCN(CC(=O)O)CC2)NC(=O)CC(NC(=O)CC(NC(=O)CCCc2ccc(I)cc2)C(=O)O)C(=O)O)CC1)C(=O)O)C(=O)O (stereo not shown) [^177Lu-PSMA-ALB-05, metal not drawn]
Key: 0.49

###

test system: PC-3 PIP/flu tumor-bearing mice; test: Biodistribution studies in PC-3 PIP/flu tumor-bearing mice; settings: 96 h p.i.
ENDPOINT: Muscle (% IA/g)
Just the number in % IA/g, nothing appended.

# example entries with known answers
[
  {
    "COMPOUND": "O=C(O)CCC(NC(=O)NC(CCCCNC(=O)C(Cc1ccc2ccccc2c1)NC(=O)C1CCC(CNC(=O)C(CCCCNC(=O)CN2CCN(CC(=O)O)CCN(CC(=O)O)CCN(CC(=O)O)CC2)NC(=O)CCCCCCC(=O)NC(CCCCNC(=O)CCCc2ccc(I)cc2)C(=O)O)CC1)C(=O)O)C(=O)O (stereo not shown) [^177Lu-PSMA-ALB-04, metal not drawn]",
    "UNIT OF MEASUREMENT": "% IA/g",
    "Muscle": 1.56
  },
  {
    "COMPOUND": "O=C(O)CCC(NC(=O)NC(CCCCNC(=O)C(Cc1ccc2ccccc2c1)NC(=O)C1CCC(n2cc(CC(NC(=O)CN3CCN(CC(=O)O)CCN(CC(=O)O)CCN(CC(=O)O)CC3)C(=O)NC(CCCCNC(=O)CCCc3ccc(I)cc3)C(=O)O)nn2)CC1)C(=O)O)C(=O)O (stereo not shown) [^177Lu-PSMA-ALB-01, metal not drawn]",
    "UNIT OF MEASUREMENT": "% IA/g",
    "Muscle": 0.82
  },
  {
    "COMPOUND": "O=C(O)CCC(NC(=O)NC(CCCCNC(=O)C(Cc1ccc2ccccc2c1)NC(=O)C1CCC(CNC(=O)C(CCCCNC(=O)CN2CCN(CC(=O)O)CCN(CC(=O)O)CCN(CC(=O)O)CC2)NC(=O)CC(NC(=O)CC(NC(=O)CCCc2ccc(I)cc2)C(=O)O)C(=O)O)CC1)C(=O)O)C(=O)O (stereo not shown) [^177Lu-PSMA-ALB-05, metal not drawn]",
    "UNIT OF MEASUREMENT": "% IA/g",
    "Muscle": 0.15
  }
]

Exercise: Fill blank: measured Muscle of the compound O=C(O)CCC(NC(=O)NC(CCCCNC(=O)C(Cc1ccc2ccccc2c1)NC(=O)C1CCC(CNC(=O)C(CCCCNC(=O)CCCc2ccc(I)cc2)NC(=O)CN2CCN(CC(=O)O)CCN(CC(=O)O)CCN(CC(=O)O)CC2)CC1)C(=O)O)C(=O)O (stereo not shown) [^177Lu-PSMA-ALB-03, metal not drawn] is ____.
Key: 0.91
